pIC50 values by entry
Molecular target: [Pyruvate dehydrogenase (acetyl-transferring)] kinase isozyme 1, mitochondrial (Homo sapiens)
Sequence (Q15118 whole entry): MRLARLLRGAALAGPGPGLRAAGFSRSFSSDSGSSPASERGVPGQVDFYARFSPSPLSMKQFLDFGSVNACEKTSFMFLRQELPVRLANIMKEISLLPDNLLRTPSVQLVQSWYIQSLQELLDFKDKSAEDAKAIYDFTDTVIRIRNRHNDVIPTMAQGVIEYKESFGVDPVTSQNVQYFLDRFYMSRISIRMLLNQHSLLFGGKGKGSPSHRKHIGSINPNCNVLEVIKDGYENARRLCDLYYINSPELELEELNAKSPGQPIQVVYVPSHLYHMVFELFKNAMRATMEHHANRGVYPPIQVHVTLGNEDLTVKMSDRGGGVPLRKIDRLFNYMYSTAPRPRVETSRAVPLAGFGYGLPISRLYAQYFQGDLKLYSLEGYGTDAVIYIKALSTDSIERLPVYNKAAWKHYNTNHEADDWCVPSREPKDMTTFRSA
Assay: Inhibition of PDK1 (unknown origin) incubated for 30 mins followed by substrate addition measured after 60 mins in presence of ATP by ADP-Glo luminescent assay
Remember the convention: pIC50 equals -log10 of concentration in molar.

Cn1cc(-c2nnc(N)nc2-c2c[nH]c3ccc(Br)cc23)c2cc(Br)cnc21 | 6.68
Cn1cc(-c2nnc(N)nc2-c2c[nH]c3ccc(F)cc23)c2cc(Br)cnc21 | 7.22
COc1ccc2[nH]cc(-c3nnc(N)nc3-c3cn(C)c4ncc(Br)cc34)c2c1 | 7.52
Cn1cc(-c2nc(N)nnc2-c2c[nH]c3ccc(F)cc23)c2cc(Br)cnc21 | 6.82

For the next question, use this compound.
Query string: I am curious: what pIC50 value has been reported for Cn1cc(-c2nc(N)nnc2-c2c[nH]c3ccc(Br)cc23)c2cc(Br)cnc21 ?
Result string: 7.22
